# TARGET UNDER TEST: T1, Bicoid DBD-GST (Bcd) (UniProt P09081 83-170)
# T1 sequence: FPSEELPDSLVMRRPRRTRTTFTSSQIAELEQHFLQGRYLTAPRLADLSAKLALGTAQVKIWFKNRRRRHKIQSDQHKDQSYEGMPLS
# METHOD SUMMARY: competitive fluorescence anisotropy (HiP-FA); mean of replicates 2.83, 2.8405; HiP-FA: 33 mM phosphate pH 7.0, 90 mM NaCl, 0.01% Tween 20, 0.1 mM DTT, 0.5% agarose; conventional titration and EMSA: 20 mM Tris-acetate pH 7.0, 50 nM (sic) NaCl, 0.01% Tween-20, 0.1 mM DTT
# TEST SETTINGS: protein: recombinant; tags: N-terminal GST; blunt, G:G mismatch at position 6
MEASURED PARAMETER: pKd
By convention, pKd is the negative base-10 log of a molar concentration.

Summary for this binder, Bcd competitor 8 (G3T) (dsDNA) DNA 1: TCGACGTTAATCCCTA DNA 2: TAGGGATTAAGGTCGA : pKd is 8.55
